- Test System: Inhibitor of nuclear factor kappa-B kinase subunit epsilon (Homo sapiens)
- Sequence (Q14164 whole entry): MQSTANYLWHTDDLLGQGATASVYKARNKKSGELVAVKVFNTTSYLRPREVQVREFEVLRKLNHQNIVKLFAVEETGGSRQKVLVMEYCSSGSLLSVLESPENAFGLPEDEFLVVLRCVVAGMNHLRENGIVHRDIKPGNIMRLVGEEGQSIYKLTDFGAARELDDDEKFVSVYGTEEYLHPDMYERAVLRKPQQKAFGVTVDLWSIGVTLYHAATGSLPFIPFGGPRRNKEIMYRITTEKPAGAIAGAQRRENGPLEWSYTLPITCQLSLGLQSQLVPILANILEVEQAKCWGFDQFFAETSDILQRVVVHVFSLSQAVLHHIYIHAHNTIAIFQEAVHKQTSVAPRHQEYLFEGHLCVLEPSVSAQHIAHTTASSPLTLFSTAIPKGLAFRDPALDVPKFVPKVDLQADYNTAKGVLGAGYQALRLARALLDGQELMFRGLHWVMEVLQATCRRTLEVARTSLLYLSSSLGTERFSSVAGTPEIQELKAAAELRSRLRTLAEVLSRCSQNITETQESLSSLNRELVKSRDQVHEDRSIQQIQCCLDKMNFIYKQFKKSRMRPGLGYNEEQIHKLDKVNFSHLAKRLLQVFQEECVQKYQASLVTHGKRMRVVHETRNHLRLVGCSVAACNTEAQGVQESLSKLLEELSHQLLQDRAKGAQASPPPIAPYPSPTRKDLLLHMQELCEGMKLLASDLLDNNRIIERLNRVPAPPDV
- Test Summary: Inhibition of human recombinant IKKepsilon by TR-FRET assay
Value Kind: log10(IC50) (log10 of the value in nM)
// stored as log10 of IC50 expressed in nM

**Query** Given the entry COc1cc2ncn(-c3cc(OCc4ccccc4S(C)(=O)=O)c(C#N)s3)c2cc1OC [GSK-319347A] , report its measured log10(IC50).
**Result** 1.60

**Query** Suppose we examine the compound COc1cc2ncn(-c3cc(OCC4CCCO4)c(C#N)s3)c2cc1OC (stereo not given) ; what log10(IC50) value has been reported?
**Result** 2.90

**Query** Quick check: log10(IC50) of COc1cc2ncn(-c3cc(OCCN4CCCCC4)c(C#N)s3)c2cc1OC ?
**Result** 3.70

**Query** Reported log10(IC50) for COc1cc2ncn(-c3cc(OCC4CC4)c(C#N)s3)c2cc1OC : what is it?
**Result** 3.50

**Query** I'd like to know its log10(IC50). The compound in question is COc1cc2c(cc1OCCN1CCOCC1)ncn2-c1cc(OCc2ccccc2C(F)(F)F)c(C#N)s1
**Result** 1.70

**Query** What does the record list as log10(IC50) for COc1cc2ncn(-c3cc(OCCN4CCOCC4)c(C#N)s3)c2cc1OC ?
**Result** 3.20

**Query** Need log10(IC50), item COc1cc2ncn(-c3cc(OCc4ccc(C(N)=O)cc4)c(C#N)s3)c2cc1OC
**Result** 4.10

**Query** What value of log10(IC50) has been reported for the following compound? COc1cc2ncn(-c3cc(OCc4ccccc4C(F)(F)F)c(C#N)s3)c2cc1OC
**Result** 2.40

**Query** Item COc1cc2ncn(-c3cc(O)c(C#N)s3)c2cc1OC has what recorded log10(IC50)?
**Result** 3.40

====

Protein target, amino acids: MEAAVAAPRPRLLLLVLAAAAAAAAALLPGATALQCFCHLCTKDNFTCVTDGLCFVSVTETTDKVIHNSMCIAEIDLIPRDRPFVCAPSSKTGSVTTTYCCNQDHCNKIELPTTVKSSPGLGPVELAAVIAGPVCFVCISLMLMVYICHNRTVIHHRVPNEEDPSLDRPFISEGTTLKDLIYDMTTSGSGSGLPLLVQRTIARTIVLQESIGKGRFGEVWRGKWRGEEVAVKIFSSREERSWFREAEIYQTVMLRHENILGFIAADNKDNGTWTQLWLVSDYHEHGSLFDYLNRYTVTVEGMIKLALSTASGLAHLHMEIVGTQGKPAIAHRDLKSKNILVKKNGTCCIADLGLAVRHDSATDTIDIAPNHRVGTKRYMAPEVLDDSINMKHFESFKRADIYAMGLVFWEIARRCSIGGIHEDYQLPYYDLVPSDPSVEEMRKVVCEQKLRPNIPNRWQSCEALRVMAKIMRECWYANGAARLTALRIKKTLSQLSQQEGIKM
pIC50: −log10 of the molar value.
Value Kind: pIC50

**Query** Need pIC50 of COc1cc2ncn(-c3cc(OCc4ccccc4S(C)(=O)=O)c(C#N)s3)c2cc1OC [GSK-319347A] , thanks.
**Result** < 5.30

====

- Test System: Mitogen-activated protein kinase 14 (Homo sapiens, UniProt Q16539)
- Sequence (Q16539 whole entry): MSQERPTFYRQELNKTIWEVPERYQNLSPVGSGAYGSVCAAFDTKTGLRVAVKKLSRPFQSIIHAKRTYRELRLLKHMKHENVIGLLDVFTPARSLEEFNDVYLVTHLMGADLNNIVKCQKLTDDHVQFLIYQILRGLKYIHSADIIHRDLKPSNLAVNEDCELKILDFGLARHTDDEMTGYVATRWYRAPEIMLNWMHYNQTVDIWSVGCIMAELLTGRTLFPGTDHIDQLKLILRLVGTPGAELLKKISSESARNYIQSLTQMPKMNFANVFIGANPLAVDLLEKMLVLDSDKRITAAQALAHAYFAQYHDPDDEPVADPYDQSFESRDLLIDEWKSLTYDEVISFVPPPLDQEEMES
- Test Summary: Inhibition of p38alpha
pIC50: −log10 of the molar value.
Value Kind: pIC50

**Query** Which value of pIC50 has been reported for COc1cc2ncn(-c3cc(OCc4ccccc4S(C)(=O)=O)c(C#N)s3)c2cc1OC [GSK-319347A] in the records?
**Result** < 4.80
